Tested on: SK-MEL-5 melanoma
test-details: NCI tumour cell line growth inhibition, 48 h
measured-parameter: log10 of TGI (log10 of the value in µM)

[
  {
    "molecule": "S=c1[nH]nc(Cn2c3ccc(Br)cc3c3nc4ccccc4nc32)n1C1CCCCC1",
    "log10 of TGI": 1.69
  },
  {
    "molecule": "O=C(OC12CC3CC(CC(C3)C1)C2)c1ccc(NCc2cc(O)ccc2O)cc1",
    "log10 of TGI": 0.57
  },
  {
    "molecule": "O=CN1CCN(C(=O)c2ccco2)C1=S",
    "log10 of TGI": 1.46
  },
  {
    "molecule": "CCCCCCc1cc2cc(-c3csc(-c4ccc(OC)cc4)n3)c(=O)oc2cc1O",
    "log10 of TGI": 1.68
  },
  {
    "molecule": "O=C(O)c1cc[c]([Hg][S]c2ncnc3nc[nH]c23)cc1",
    "log10 of TGI": 1.56
  },
  {
    "molecule": "C[C@]12CC[C@@H]3c4ccc(O)c([N+](=O)[O-])c4CC[C@H]3[C@@H]1CC[C@@H]2NS(=O)(=O)c1ccc(C(F)(F)F)cc1",
    "log10 of TGI": 0.52
  },
  {
    "molecule": "CN(C)c1ccc(/C=c2/c3ccccc3n3c2cc(-c2ccccc2)[n+]3C)cc1",
    "log10 of TGI": -0.42
  },
  {
    "molecule": "Cc1cc(N(CCNc2ccnc3cc(Cl)ccc23)Cc2ccc3c(c2)OCO3)nc(N2CCN(C)CC2)n1",
    "log10 of TGI": 0.51
  },
  {
    "molecule": "O=C(O)C1=NN(c2ccc(S(=O)(=O)O)cc2)C2(C1)C(Cl)C(=O)N2c1nc2ccccc2s1 (stereo unspecified)",
    "log10 of TGI": 1.41
  },
  {
    "molecule": "O=[N+]([O-])c1ccc(N=Nc2c(O)[nH]c3ccc([N+](=O)[O-])cc23)cc1",
    "log10 of TGI": 1.43
  },
  {
    "molecule": "COc1ccc(C(=O)N2c3ccccc3Sc3ccccc32)c(F)c1",
    "log10 of TGI": 1.35
  }
]
